Could you please report measured growth for the items listed next?
Test system: OVCAR-3 ovarian
Test: NCI-60 one-dose screen, 48 h (100 = growth as untreated, 0 = no growth, -100 = all killed)
Details: 10 µM unless noted
Compounds without any hit were thinned out: in the full panel of roughly 83,000, 20% have a hit.
One number for each entry, in %.

Answered cases to consult:
>>> value_observed("O=[N+]([O-])c1ccc(Cl)c(-c2cc(CCCCO)on2)c1")
111
>>> value_observed("Cn1cc(-c2cc3ncnc(Nc4ccc(CC(=O)Nc5cc(C(C)(C)C)nn5C)cc4)c3s2)cn1")
61.4
>>> value_observed("O=S(=O)(Nc1ccc(-c2nc(-c3cccc(OCCN4CCOCC4)c3)c(-c3ccnc(Br)c3)[nH]2)cc1)c1ccccc1")
46.1

Param item = Cn1cc(-c2cc3ncnc(Nc4ccc(CC(=O)Nc5cc(C(C)(C)C)on5)cc4)c3s2)cn1 ; retrieve measured growth.
36.6
